# Tested on: BEND3
# run.description: Induction of BBB translocation in mouse BEND3 cells measured after 24 hrs by fluorescence analysis
# Assay type: functional, cell-based
Calls of active or inactive are those of the source. The calls are words filed in the database; no cut-off is given here. Square brackets hold non-standard residues; d marks the D form. Peptide text beside a SMILES is read from it.

molecule	Activity
CC[C@@H](C)[C@@H](NC(=O)CNC(=O)[C@@H](C)N)C(=O)N[C@H](CC(C)C)C(=O)N[C@H](CCCCN)C(=O)N[C@H](CCCNC(=N)N)C(=O)N[C@H](Cc1c[nH]c2ccccc12)C(=O)N[C@@H](CCCCN)C(=O)N[C@H](C(=O)N[C@@H](CC(C)C)C(=O)N[C@H](C(=O)N[C@@H](CC(C)C)C(=O)N[C@H](C(=O)N[C@@H](CC(C)C)C(=O)N[C@H](C(=O)N[C@H](C(N)=O)C(C)C)C(C)C)[C@@H](C)CC)C(C)C)[C@@H](C)O (H-[dA]G[dI][dL][dK][dR][dW]KTLVLILVV-NH2)	Active
CC[C@H](C)[C@H](NC(=O)[C@H](Cc1ccc(O)cc1)NC(=O)[C@H](CCSC)NC(=O)[C@H](Cc1ccc(O)cc1)NC(=O)[C@H](C)NC(=O)[C@H](Cc1ccc(O)cc1)NC(=O)[C@@H](N)C(C)C)C(=O)N[C@@H](CC(C)C)C(=O)N[C@@H](Cc1c[nH]c2ccccc12)C(=O)N[C@H](CO)C(=O)N[C@H](CCCCN)C(=O)N[C@H](CO)C(=O)N[C@H](CCCCN)C(=O)N[C@H](CO)C(=O)N[C@H](CCCCN)C(N)=O (H-VYAYMYILW[dS][dK][dS][dK][dS][dK]-NH2)	Active
CC[C@@H](C)[C@@H](NC(=O)CNC(=O)[C@@H](C)N)C(=O)N[C@H](CC(C)C)C(=O)N[C@H](CCCCN)C(=O)N[C@H](CCCNC(=N)N)C(=O)N[C@H](Cc1c[nH]c2ccccc12)C(=O)N[C@@H](C(=O)N[C@@H](C(=O)N[C@H](CC(C)C)C(=O)N[C@@H](C(=O)N[C@H](CC(C)C)C(=O)N[C@@H](C(=O)N[C@H](CC(C)C)C(=O)N[C@@H](C(=O)N[C@H](CCCCN)C(N)=O)[C@H](C)O)C(C)C)[C@H](C)CC)C(C)C)C(C)C (H-[dA]G[dI][dL][dK][dR][dW][dV][dV][dL][dI][dL][dV][dL][dT][dK]-NH2)	Active

====

# Tested on: HEK293T
# run.description: Inhibition of human c-YFP fused CB1R/n-YFP fused 5HT2A receptor heterodimer formation expressed in HEK293T cells assessed as increase in pERK level preincubated for 15 mins followed by WIN 55,212-2 stimulation for 7 mins by microplate reader method
# Assay type: cell-based
# recorded.conditions: time 22.0 min
The source made the active and inactive calls. The calls are words filed in the database; no cut-off is given here. Square brackets hold non-standard residues; d marks the D form. Peptide text beside a SMILES is read from it.
Your response should consist of one outcome taken from active, inactive

Answered examples (5):
compound	label.class
CC[C@H](C)[C@H](NC(=O)[C@H](Cc1ccc(O)cc1)NC(=O)[C@H](CCSC)NC(=O)[C@H](Cc1ccc(O)cc1)NC(=O)[C@H](C)NC(=O)[C@H](Cc1ccc(O)cc1)NC(=O)[C@@H](N)C(C)C)C(=O)N[C@@H](CC(C)C)C(=O)N[C@@H](Cc1c[nH]c2ccccc12)C(=O)N[C@H](CO)C(=O)N[C@H](CCCCN)C(=O)N[C@H](CO)C(=O)N[C@H](CCCCN)C(=O)N[C@H](CO)C(=O)N[C@H](CCCCN)C(N)=O (H-VYAYMYILW[dS][dK][dS][dK][dS][dK]-NH2)	active
CC[C@@H](C)[C@@H](NC(=O)CNC(=O)[C@@H](C)N)C(=O)N[C@H](CC(C)C)C(=O)N[C@H](CCCCN)C(=O)N[C@H](CCCNC(=N)N)C(=O)N[C@H](Cc1c[nH]c2ccccc12)C(=O)N[C@@H](CCCCN)C(=O)N[C@H](C(=O)N[C@@H](CC(C)C)C(=O)N[C@H](C(=O)N[C@@H](CC(C)C)C(=O)N[C@H](C(=O)N[C@@H](CC(C)C)C(=O)N[C@H](C(=O)N[C@H](C(N)=O)C(C)C)C(C)C)[C@@H](C)CC)C(C)C)[C@@H](C)O (H-[dA]G[dI][dL][dK][dR][dW]KTLVLILVV-NH2)	active
COc1cccc([C@H](O)C2CCN(CCc3ccc(F)cc3)CC2)c1OC	inactive
CC[C@@H](C)[C@@H](NC(=O)CNC(=O)[C@@H](C)NC(=O)[C@H](Cc1c[nH]c2ccccc12)NC(=O)[C@H](CC(C)C)NC(=O)[C@@H](NC(=O)[C@H](Cc1ccc(O)cc1)NC(=O)[C@H](CCSC)NC(=O)[C@H](Cc1ccc(O)cc1)NC(=O)[C@H](C)NC(=O)[C@H](Cc1ccc(O)cc1)NC(=O)[C@@H](N)C(C)C)[C@@H](C)CC)C(=O)N[C@H](CC(C)C)C(=O)N[C@H](CCCCN)C(=O)N[C@H](CCCNC(=N)N)C(=O)N[C@H](Cc1c[nH]c2ccccc12)C(N)=O (H-VYAYMYILW[dA]G[dI][dL][dK][dR][dW]-NH2)	active
CC[C@H](C)[C@H](NC(=O)[C@H](CC(C)C)NC(=O)[C@@H](NC(=O)[C@H](CC(C)C)NC(=O)[C@@H](NC(=O)[C@H](CCCCN)NC(=O)[C@@H](CCCCN)NC(=O)[C@@H](CO)NC(=O)[C@@H](CCCCN)NC(=O)[C@@H](CO)NC(=O)[C@@H](CCCCN)NC(=O)[C@H](N)CO)[C@@H](C)O)C(C)C)C(=O)N[C@@H](CC(C)C)C(=O)N[C@H](C(=O)N[C@H](C(N)=O)C(C)C)C(C)C (H-[dS][dK][dS][dK][dS][dK]KTLVLILVV-NH2)	active

In: Short answer needed: outcome of this test for Cc1c(C(=O)NN2CCCCC2)nn(-c2ccc(Cl)cc2Cl)c1-c1ccc(Cl)cc1 ?
Out: inactive

Cited source: ChEMBL document CHEMBL5036309
